# ASSAY SYSTEM: Shiga toxin 2 (Escherichia coli O157:H7) (UniProt P09385+P09386)
# TEST METHOD NOTES: E. coli 0.157:H7 Shiga Toxin SOP - stx2 screening assay
# Assay type: functional
# Design: scale not given: direction of the effect not stated beside the values
# CONDITION LABEL: 30 µM
Can you tell me Percent Effect for the items I'm about to list?

molecule="COCCC1COC2(CCN(C(=O)c3ccco3)CC2)C1 (stereo unspecified)" result=-2.25%
molecule=c1cnc(N2CCC3(CC2)CN(CC2CC2)c2ccccc23)nc1 result=-25%
molecule=CCc1ccc(-n2c(=O)[nH]c3nc(N4CCSCC4)ncc3c2=O)cc1 result=-13.5%
molecule=Cc1ccsc1-c1nnc(C2CCN(Cc3ccc(F)cc3)CC2)o1 result=-123%
molecule="CCOC(=O)CCC(=O)NC(C)c1ccc(NC(=O)CC)cc1 (stereo unspecified)" result=-0.224%

Shift focus to the following entry.
Looking for the measured Percent Effect of CN1CC(=O)N(c2ccccc2)CC12CCN(CC1CC1)C2 (stereo unspecified) , can you help? -5.63%

* * *

# Species on record: Homo sapiens
# TEST METHOD NOTES: To identify inhibition of the IFN signalling (Jak-Stat) pathway via expression of an eGFP reporter gene under the control of an IFN-stimulated response element (ISRE) containing MxA promoter.
# Type: functional
# Parameters: scale not given: direction of the effect not stated beside the values
# CONDITION LABEL: 30 µM
ENDPOINT LABEL: Percent Effect
Kindly report the value followed by its unit.

molecule="COc1ccc(-c2n[nH]cc2C2SCC(=O)Nc3[nH]ncc32)cc1 (configuration not stated)" result=16.2%
molecule=CCn1cc(CN2CCCN(C(=O)Cc3cccs3)CC2)cn1 result=-4.27%
molecule="Cc1cnc(N2CCCC3(CCCN(C)C3)C2)nc1 (configuration not stated)" result=-22.4%

List the reported Percent Effect of each molecule below.
1. COc1ccc2c(ccn2CCN)c1
2. c1ccc(CN2CCO[C@H]3[C@H](OCCN4CCCC4)CC[C@@H]32)nc1
3. CCN(CCc1ccccc1)Cn1nc(C)c2c(C)onc2c1=O
4. Cc1ccccc1CC(=O)N1CCN(C2CCOC2=O)CC1 (configuration not stated)
5. c1ccc(CN2CC[C@]3(C[C@@H](Oc4ccccn4)CO3)C2)nc1
6. c1cnc(N2CCC3(COCCN(CC4CC4)C3)C2)nc1 (configuration not stated)
7. COCC(=O)N1C[C@@H]2OCCN(Cc3c(C)noc3C)[C@@H]2C1
8. c1cc(CN2C[C@@H]3COC[C@]3(COCC3CC3)C2)ccn1

19%
-6.91%
5.78%
11.9%
17.7%
-5.95%
5.87%
-2.49%

Looking for the measured Percent Effect of O=C(N[C@H]1CN[C@H]2CCCO[C@H]21)c1ccno1 , can you help? -9.47%

* * *

Can you tell me Percent Effect for the items I'm about to list?
# ASSAY SYSTEM: Aspartate--tRNA(Asp/Asn) ligase (Mycobacterium tuberculosis (strain ATCC 25618 / H37Rv)) (UniProt P9WFW3); note: in the data most compounds retested in dose-response had high values
# Sequence (P9WFW3 whole entry): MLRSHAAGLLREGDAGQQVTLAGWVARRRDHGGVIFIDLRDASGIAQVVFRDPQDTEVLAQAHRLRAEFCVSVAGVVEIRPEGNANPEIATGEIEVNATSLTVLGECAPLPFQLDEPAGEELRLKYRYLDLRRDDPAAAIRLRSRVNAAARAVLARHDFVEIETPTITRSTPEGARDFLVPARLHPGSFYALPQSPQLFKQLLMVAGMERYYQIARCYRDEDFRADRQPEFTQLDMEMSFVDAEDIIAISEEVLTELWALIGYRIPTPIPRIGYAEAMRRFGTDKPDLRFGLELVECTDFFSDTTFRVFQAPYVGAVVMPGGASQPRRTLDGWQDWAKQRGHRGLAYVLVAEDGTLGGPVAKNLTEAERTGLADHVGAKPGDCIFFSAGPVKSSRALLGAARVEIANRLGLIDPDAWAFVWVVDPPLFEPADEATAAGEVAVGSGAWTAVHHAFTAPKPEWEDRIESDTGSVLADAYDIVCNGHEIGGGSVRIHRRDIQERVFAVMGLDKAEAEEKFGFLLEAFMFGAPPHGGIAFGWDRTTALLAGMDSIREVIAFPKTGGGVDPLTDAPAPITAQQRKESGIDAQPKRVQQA
# TEST METHOD NOTES: Assay for Asp RNA synthetase-1 from Mycobacterium tuberculosis
# Format: functional
# Design: scale not given: direction of the effect not stated beside the values
# CONDITION LABEL: 30 µM

molecule="COCCCC1(CO)CCCN(CCc2ccccc2)C1 (stereo not given)" endpoint_label="Percent Effect" result=-0.201%
molecule=O=C(NCc1cccc2cccnc12)N1CCC(n2cncn2)CC1 endpoint_label="Percent Effect" result=-6.04%
molecule="COCCOCc1cccc(NC(=O)N2CCCC2c2ccncc2)c1 (stereo not given)" endpoint_label="Percent Effect" result=-1.56%
molecule=CCOc1ccc(NC(=O)CN2CCN(c3nccn3C)CC2)cc1 endpoint_label="Percent Effect" result=-3.86%
molecule=CCN(C)c1ncnc2c1CCN(C(=O)c1ccno1)CC2 endpoint_label="Percent Effect" result=7.02%

List the reported Percent Effect of each molecule below.
1. COc1c(CNC2CCCc3ccccc32)c(C(C)C)nn1C (stereo not given)
2. CCc1ccc(CNC(=O)NC(C)CN2CCOCC2)s1 (stereo not given)
3. COc1ccc(CN2CCn3cc(CN4CCN(C)CC4)nc3C2)cc1
4. Cc1nc(C)n(CC2CCCN2CCOc2ccc(C#N)cc2)n1 (stereo not given)
5. COCCC(=O)N1C[C@@H]2COC[C@]2(COCc2cccnc2)C1
6. COc1ccc(CC(=O)N2CCCCC2Cn2cccn2)cc1OC (stereo not given)

1. -0.233%
2. 1.38%
3. -1.67%
4. -3.28%
5. 2.14%
6. -2.34%
